From: PubChem BioAssay (NCI)

Would you mind telling me the reported growth of each entry?
tested on: SK-OV-3 ovarian; test: NCI-60 one-dose screen, 48 h (100 = growth as untreated, 0 = no growth, -100 = all killed); settings: 10 µM unless noted
This is part of a sample that, as a whole, favours compounds with a hit. Of some 83,000 tested, about 20% had one in any assay.
All answers are understood in %, so give the number only.

q: Given the entry COc1cc(NC(=O)NCc2ccco2)ccc1-c1ccc(NC(=O)NCc2ccco2)cc1OC , report its measured growth.
a: 69.9

q: Sample c1ccc(-c2nc(Nc3nccnn3)c3ccccc3n2)cc1 — what was its growth?
a: 115

q: Could you tell me which growth is on file for COc1ccc(-c2c3c(N)nc(-c4ccncc4)nc3nc3c2c(C)nn3-c2ccccc2)cc1 ?
a: 53.4

q: Please look up its growth: COc1ccc(C(=O)COc2ccc(/C=C3\Oc4ccc5ccccc5c4C3=O)cc2)cc1
a: 97.8

q: What growth value was documented for this compound, COC(=O)[C@H]1[C@H]2C[C@@H]3c4[nH]c5cc(OC)ccc5c4CCN3C[C@H]2C[C@@H](OC(=O)/C=C/c2cc(OC)c(OC)c(OC)c2)[C@@H]1OC ?
a: 98.6

q: Quick one: growth for COc1ccc2c(c1)c(CC(=O)[Se]C)c(C)n2C(=O)c1ccc(Cl)cc1 ?
a: 40.7

q: Looking for the measured growth of CC1CN(CC(O)c2ccc(Br)cc2)CCO1 (stereo unspecified) , can you help?
a: 112

q: Report growth for c1ccc(COc2ccc(Nc3ncnc4c3cnn4-c3ccccc3)cc2)cc1 please.
a: 108

q: Any idea what growth was measured for O=c1c2c(=NCCCN3CCCC3)cc3c(=O)n(CCCN4CCCC4)c(=O)c4c(NCCCN5CCCC5)cc(c(O)n1CCCN1CCCC1)c2c4-3 ?
a: -6.65

q: // returns reported growth for input Nc1ccc2c(c1Br)Cc1ccccc1-2
a: 95.4

q: # get_value(readout='growth', item= COC(=O)N/N=C/c1coc2ccc(Cl)cc2c1=O )
a: 92.3

q: Please report the recorded growth for N#Cc1ccc(-c2csc(Nc3ccc4nc5n(c(=O)c4c3)CCC5)n2)cc1 .
a: 176

q: So what's the measured growth for this one? CCOC(=O)OCC(=O)[C@@]1(O)CC[C@H]2[C@@H]3CCC4=CC(=O)CC[C@]4(C)[C@H]3[C@@H](O)C[C@@]21C
a: 68.4

q: Fill in the blank: the reported growth of O=C(Nc1cccc(-n2cc(-c3ccncc3)c(-c3cc(O)cc(Cl)c3)n2)c1)Nc1ccc(Cl)c(Cl)c1 is ____.
a: 13.2

q: So what's the measured growth for this one? CCN1CC2=C(Nc3nc(SC)[nH]c(=O)c3C2c2cc(OC)c(OC)c(OC)c2)/C(=C/c2cc(OC)c(OC)c(OC)c2)C1 (stereo unspecified)
a: 110

q: Sample CC(=O)Nc1ccc(C(=O)COc2cccc(/C=C3\CCc4ccccc4C3=O)c2)cc1 — what was its growth?
a: 95.5
